Target: T1, human IL-18 binding protein (human, UniProt O95998 31-194); further: unit not given here
T1 sequence (looked up): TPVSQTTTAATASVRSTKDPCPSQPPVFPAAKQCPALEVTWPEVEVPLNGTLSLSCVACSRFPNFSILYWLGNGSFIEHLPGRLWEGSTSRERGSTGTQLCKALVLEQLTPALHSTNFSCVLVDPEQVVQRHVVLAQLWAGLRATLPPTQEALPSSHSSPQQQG
Assay: cell-based or functional assay
Listing: HEK-Blue activity, +100 nM BP, DF-1,000,000 of selected binders
parameter: HEK-Blue activity, +100 nM BP, DF-1,000,000

{"binder": "yeast display IL-18 variant S36E, D37E, D40K, N41T, K53T, S55Q, R104H (ligand) YFGKLESKLSVIRNLNDQVLFIDQGNRPLFEDMTDEEMRKTAPRTIFIISMYTDQQPRGMAVTISVKSEKISTLSSENKIISFKEMNPPDNIKDTKSDIIFFQHSVPGHDNKMQFESSSYEGYFLASEKERDLFKLILKKEDELGDRSIMFTVQNED", "obs_value": 0.14}
{"binder": "yeast display IL-18 variant K53G, S55I (ligand) YFGKLESKLSVIRNLNDQVLFIDQGNRPLFEDMTDSDMRDNAPRTIFIISMYGDIQPRGMAVTISVKSEKISTLSSENKIISFKEMNPPDNIKDTKSDIIFFQRSVPGHDNKMQFESSSYEGYFLASEKERDLFKLILKKEDELGDRSIMFTVQNED", "obs_value": 0.13}
{"binder": "yeast display IL-18 variant K53W, S55A (ligand) YFGKLESKLSVIRNLNDQVLFIDQGNRPLFEDMTDSDMRDNAPRTIFIISMYWDAQPRGMAVTISVKSEKISTLSSENKIISFKEMNPPDNIKDTKSDIIFFQRSVPGHDNKMQFESSSYEGYFLASEKERDLFKLILKKEDELGDRSIMFTVQNED", "obs_value": 0.13}

Reference source for all entries: patent US20240182536A1
